study-target: PICK1, Q9NRD5
Sequence (Q9NRD5 17-115): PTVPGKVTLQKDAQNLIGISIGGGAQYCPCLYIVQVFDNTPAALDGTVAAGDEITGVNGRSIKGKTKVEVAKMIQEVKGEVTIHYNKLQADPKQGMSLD
test: holdup assay
Set-up: key: below the threshold = too weak to quantify, mostly under pKd 3.1 to 4
experimental-conditions: plain residues with an end cap or a label only (N-terminal biotin on a linker: ado-ado)
observable: pKd

The examples below pair each entry with its known result.
- binder: "EVEEFPETSV [TRPV3, Q8NET8]"
  pKd: "below the threshold"
- binder: "SSALYGESDL [ACTN2, P35609]"
  pKd: "below the threshold"
- binder: "TLPRKRMSSI [GPRC6A, Q5T6X5]"
  pKd: 4.13
- binder: "EALLQMESVA [CAVIN3, Q969G5]"
  pKd: "below the threshold"
- binder: "GNSVLKSTQF [SLC22A12, Q96S37]"
  pKd: 4.02
- binder: "QSPANIYYKV [EFNB1, P52799]"
  pKd: "below the threshold"
- binder: "IKAIVDLTGL [TRAF2, Q12933]"
  pKd: "below the threshold"

--- query ---
binder SAAKVLTSMC [GHRHR, Q02643] , pKd observed: below the threshold
